molecular target: human DGKα (Homo sapiens); assay: DGKα Biochemical Activity Assay (ADP-Glo); settings: recombinant DGKα 1 nM, 100 μM ATP, 18:1 DAG/POPS/octylglucoside micelles, 1 hour at 25° C.; geometric mean; read-out: HTBS DGKa 1X ATP KM IC50
property.name: IC50 (nM)

Here's what some known entries look like.
# compound, IC50 (nM)
measured = [
    ("Cc1nnc2nc(N3CCN(C)Cc4c(C#CC5(C(C)(F)F)CC5)cccc43)c3c(F)cccc3n12 [Example 166]", 17.4),
    ("Cc1nnc2nc(N(CC(F)F)c3cccc(C#CC4(C)CC4)c3F)c3c(F)cccc3n12 [Example 52]", 7.98),
    ("Cc1nnc2nc(N3CCN(C)Cc4c(C#CC5(C)CC5)cccc43)c3c(F)cccc3n12 [Example 165]", 7.6),
    ("Cc1nnc2nc(N3CCCOc4c(C#CC5(C)CC5)cccc43)c3c(F)c(F)ccc3n12 [Example 122]", 5.27),
    ("Cc1nnc2nc(N3CCOCc4c3ccnc4C#CC3(C(C)(F)F)CC3)c3c(F)cccc3n12 [Example 142]", 16.4),
]

I = Fc1cccc2c1c(N1CCCc3c(C#CC4(C(F)F)CC4)cncc31)nc1nncn12 [Example 19]
II = CC(C)(C#N)C#Cc1cccc2c1CCCN2c1nc2nncn2c2ccc(F)c(F)c12 [Example 242]
III = Cc1nnc2nc(N3CCCc4c(C#CC5(C(F)F)CC5)cncc43)c3c(F)c(F)ccc3n12 [Example 11]
Rank items: key IC50, increasing. Give the order by naming the labels one after another as requested.
II, III, I
(II: 3.75 nM, III: 13.9 nM, I: 21.3 nM)

* * *

biological target: UniProt:P23743; test: DGKα Biochemical Activity Assay (ADP-Glo); details: recombinant DGKα 1 nM, 100 μM ATP, 18:1 DAG/POPS/octylglucoside micelles, 1 hour at 25° C.; geometric mean; read-out: HTBS DGKa 1X ATP KM IC50
pIC50: −log10 of the molar value.
property.name: pIC50

# smiles, pIC50
records = [
    ("Cc1nnc2nc(N3CCCc4c(C#CC5(C)COC5)cccc43)c3c(F)cccc3n12", 7.82),
]

a = Cc1nnc2nc(N3CCCc4c(C#CC(C)(C)C#N)cccc43)c3c(Cl)cccc3n12
b = Cc1nnc2nc(N3CCCc4c(C#Cc5ccc(C#N)nc5)cccc43)c3c(F)cccc3n12
Return label of the item with the larger pIC50. Candidates: a , b . Answer by stating the label of the chosen item.
b

* * *

target: UniProt P23743; assay: DGKα Biochemical Activity Assay (ADP-Glo); conditions: recombinant DGKα 1 nM, 100 μM ATP, 18:1 DAG/POPS/octylglucoside micelles, 1 hour at 25° C.; geometric mean; read-out: HTBS DGKa 1X ATP KM IC50
property.name: IC50 (nM)

Worked set:
# smiles, IC50 / nM
measured = [
    ("Cc1nnc2nc(N3CCCc4c(C#CC(C)(C)NC(=O)C5(C(F)(F)F)CC5)cccc43)c3c(F)cccc3n12", 2.41),
    ("CC(C)(O)C#Cc1cccc2c1COCCN2c1nc2nncn2c2c(F)ccc(F)c12", 6.5),
    ("Cc1nnc2nc(N3CCCOc4c(C#CC5(C(C)(F)F)CC5)cccc43)c3c(F)c(F)ccc3n12", 32.8),
    ("Cc1cc(F)cc2c(N(CC(F)F)c3cc(F)cc(C#CC4(C(F)(F)F)CC4)c3)nc3nncn3c12", 118),
    ("Cc1cccc2c(N3CCOCc4c(C#CC5(C(C)(F)F)CC5)cccc43)nc3nncn3c12", 39.9),
]

A = Cc1nnc2nc(N(CC(F)F)c3cccc(C#CC4(C(F)(F)F)CC4)c3F)c3c(F)cccc3n12
B = Cc1nnc2nc(N(CC(F)F)c3ccnc(C#CC4(C(F)(F)F)CC4)c3F)c3cc(F)ccc3n12
Just tell me: smaller IC50 value, A or B ? Return value: the label identifying the chosen record.
B
(B: 5.41 nM, A: 32.8 nM)

a = CC1(C#Cc2cccc3c2CCCN3c2nc3nncn3c3c(F)ccc(F)c23)CC1
b = Cc1nnc2nc(N3CCOCc4c(C#Cc5cn[nH]c5)cccc43)c3c(F)cccc3n12
IC50 comparison. Which is larger, a or b ? Give the label under which the chosen entry appears.
a
(a: 14.8 nM, b: 6.35 nM)

a = Cc1nnc2nc(N(CC(F)F)c3cc(F)cc(C#CC4(C(F)F)CC4)c3)c3c(F)cccc3n12
b = Fc1cccc2c1c(N1CCCc3c(C#CC4CC(F)(F)C4)cncc31)nc1nncn12
Just curious, which one has the larger IC50 reading, a or b ? Could you answer with the label of the item you picked?
a

* * *

molecular target: human DGKα (Homo sapiens, UniProt P23743); test: DGKα Biochemical Activity Assay (ADP-Glo); settings: recombinant DGKα 1 nM, 100 μM ATP, 18:1 DAG/POPS/octylglucoside micelles, 1 hour at 25° C.; geometric mean; read-out: HTBS DGKa 1X ATP KM IC50;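 note: luminescent detection of ADP produced as DGKα phosphorylates DAG to phosphatidic acid, IC50 from four-parameter nonlinear curve fit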
Sequence (P23743 whole entry): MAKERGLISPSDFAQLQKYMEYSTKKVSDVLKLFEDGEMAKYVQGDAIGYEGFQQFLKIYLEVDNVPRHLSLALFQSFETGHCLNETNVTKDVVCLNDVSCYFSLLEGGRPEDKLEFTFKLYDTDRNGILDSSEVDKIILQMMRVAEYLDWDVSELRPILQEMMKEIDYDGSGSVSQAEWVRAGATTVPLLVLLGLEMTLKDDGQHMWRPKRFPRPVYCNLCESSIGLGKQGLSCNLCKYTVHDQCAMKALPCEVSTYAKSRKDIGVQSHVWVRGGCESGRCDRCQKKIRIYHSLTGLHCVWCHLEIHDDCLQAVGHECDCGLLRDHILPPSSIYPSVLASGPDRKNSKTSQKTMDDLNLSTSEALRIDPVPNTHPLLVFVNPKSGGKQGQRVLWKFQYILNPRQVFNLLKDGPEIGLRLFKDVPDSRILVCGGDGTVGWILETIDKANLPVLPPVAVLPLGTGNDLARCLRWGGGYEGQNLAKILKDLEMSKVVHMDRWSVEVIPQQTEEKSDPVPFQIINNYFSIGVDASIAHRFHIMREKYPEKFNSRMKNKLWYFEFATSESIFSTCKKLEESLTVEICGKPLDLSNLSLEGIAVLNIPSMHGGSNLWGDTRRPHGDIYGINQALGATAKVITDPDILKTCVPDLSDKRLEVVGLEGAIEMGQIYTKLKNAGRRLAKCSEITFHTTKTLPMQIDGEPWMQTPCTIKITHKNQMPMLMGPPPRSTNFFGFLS
pIC50: −log10 of the molar value.
property.name: pIC50

Please review the entries below; each comes with its answer.
# compound, number
records = [
    ("COc1ccc(C#Cc2cccc3c2CCCN3c2nc3nnc(C)n3c3ccc(F)cc23)cn1 [Example 228]", 7.75),
    ("CC(C)(O)C#Cc1cc(N(CC(F)F)c2nc3nncn3c3c(Cl)cc(F)cc23)ccn1 [Example 60]", 7.16),
    ("Cc1nnc2nc(N3CCOCc4c(C#CC(C)(C)NC(=O)C5(C(C)(F)F)CC5)cccc43)c3c(F)cccc3n12 [Example 181]", 8.39),
    ("Cc1nnc2nc(N(CC(F)F)c3ccnc(C#CC4CC4)c3)c3c(F)cccc3n12 [Example 82]", 7.94),
    ("CC(C)(C#Cc1cc(N(CC(F)F)c2nc3nncn3c3ccc(F)c(F)c23)ccn1)C(F)(F)F [Example 93]", 8.09),
]

P = Cc1nnc2nc(N3CCCc4c(C#CC(C)(C)c5ncco5)cccc43)c3c(F)cccc3n12 [Example 79]
Q = CC(C)(C#Cc1cncc2c1CCCN2c1nc2nncn2c2ccc(F)c(F)c12)C(F)(F)F [Example 100]
R = Cc1nnc2nc(N3CCCc4c(N5CCN(C(=O)C(F)F)CC5)cccc43)c3c(F)cccc3n12 [Example 158]
Sort low-to-high on pIC50, please. List each label, following the requested order.
R, P, Q
(R: 6.55, P: 7.65, Q: 8.21)

a = Cc1nnc2nc(N3CCCCc4c(C#CC(C)(C)C#N)cncc43)c3cc(F)ccc3n12 [Example 4]
b = Cc1nc(C#Cc2cccc3c2COCCN3c2nc3nnc(C)n3c3cccc(F)c23)co1 [Example 179]
c = Cc1nnc2nc(N3CCCc4c(C#CC5(C(C)(F)F)CC5)cccc43)c3cc(F)ccc3n12 [Example 31]
d = CC(C)(O)C#Cc1cccc2c1CCCN2c1nc2nncn2c2c(F)cc(F)cc12 [Example 120]
Sort the 4 compounds by pIC50; largest first, smallest last. Arrange the labels as the request states and list them.
d, b, a, c
(d: 8.30, b: 8.02, a: 7.62, c: 7.29)

I = Cc1nnc2nc(N3CCCc4c(C#CC(C)(C)C#N)cncc43)c3c(F)c(F)ccc3n12 [Example 10]
II = Cc1nnc2nc(N3CCCc4c(C#Cc5cn[nH]c5)cccc43)c3cc(F)ccc3n12 [Example 225]
For the pair I and II , which member has the lower pIC50 number? # reply format: chosen label
I

P = Fc1cc(C#CC2(C(F)F)CC2)cc(N(CC(F)F)c2nc3nncn3c3c(Cl)cc(F)cc23)c1 [Example 47]
Q = Cc1nnc2nc(N3CCCc4c(C#CC(C)(C)C(=O)N5CCC(F)(F)CC5)cccc43)c3c(F)cccc3n12 [Example 69]
Between P and Q , which one has the lower reported pIC50 value? Respond with the label that goes with your answer.
Q

* * *

molecular target: human DGKα (Homo sapiens); assay: DGKα Biochemical Activity Assay (ADP-Glo); conditions: recombinant DGKα 1 nM, 100 μM ATP, 18:1 DAG/POPS/octylglucoside micelles, 1 hour at 25° C.; geometric mean; read-out: HTBS DGKa 1X ATP KM IC50
property.name: IC50 (nM)

# molecule, uom, IC50
rows = [
    ("Cc1cccc2c1c(N1CCOCc3c(C#CC(C)(C)C#N)cccc31)nc1nnc(C)n12 [Example 217]", "nM", 31.7),
]

a = Cc1nnc2nc(N(CC(F)F)c3ccnc(C#CC(C)(C)C(F)(F)F)c3F)c3c(F)cccc3n12 [Example 43]
b = Cc1nnc2nc(N3CCCCc4c(C#CC(C)(C)NC(=O)C5(C(F)(F)F)CC5)cccc43)c3c(F)cccc3n12 [Example 183]
For the pair a and b , which member has the lower IC50 number? To answer, give the label that identifies your chosen option.
a

A = Cc1nnc2nc(N3CCOCc4c(C#CC(C)(C)C(=O)NC5(C(F)(F)F)CC5)cccc43)c3c(F)c(F)ccc3n12 [Example 64]
B = Cc1nnc2nc(N(CC(F)F)c3cc(F)cc(-c4ccc(C(C)(C)O)cc4)c3)c3c(F)cccc3n12 [Example 128]
C = CC1(C#Cc2cc(N(CC(F)F)c3nc4nncn4c4ccc(F)cc34)ccn2)CC1 [Example 102]
D = Cc1nnc2nc(N3CCCc4c(N5CCN(S(C)(=O)=O)CC5)cccc43)c3c(F)cccc3n12 [Example 160]
E = Cc1nnc2nc(N(CC(F)F)c3cc(F)cc(C#CC(C)(C)c4cccnc4)c3)c3c(F)c(F)ccc3n12 [Example 67]
Put these in order: smallest IC50 first, largest last. // ordering of labels required in reply
C, A, B, D, E
